Test system: Escherichia coli TOP10
Assay: shrunken log2 fold change of peptide-encoding DNA abundance (4.5 h post-induction vs induction); higher = less antimicrobial activity (less host growth inhibition)
Conditions: time post-induction: 4.5 h; library: site-saturation at positions 5, 18, 19, 20
The label depends only on shrunken log2 fold change: yes if it is at least 0.06, no if it is smaller.

| sequence code | assigned class |
| --- | --- |
| RRIRYRPPRLPRPRPRPTLYPRP | no |

Input line: # check: shrunken log2 fold change of RRIRARPPRLPRPRPRPKRWPRP is greater than or equal to 0.06
Output line: yes

Input line: Evaluate RRIRSRPPRLPRPRPRPAKVPRP : shrunken log2 fold change at minimum 0.06?
Output line: no

Input line: Entry RRIRDRPPRLPRPRPRPFVSPRP : is its shrunken log2 fold change no less than 0.06?
Output line: no

###

Tested on: Escherichia coli TOP10
Assay: shrunken log2 fold change of peptide-encoding DNA abundance (4.5 h post-induction vs induction); higher = less antimicrobial activity (less host growth inhibition)
Details: time post-induction: 4.5 h; library: site-saturation at positions 5, 18, 19, 20
Please provide measured shrunken log2 fold change for the entries that follow.
Numbers only.

| sequence code | target system | shrunken log2 fold change |
| --- | --- | --- |
| RRIRPRPPRLPRPRPRPKIAPRP | Escherichia coli TOP10 | -0.1 |
| RRIRCRPPRLPRPRPRPSRFPRP | Escherichia coli TOP10 | -0.0991 |
| RRIRNRPPRLPRPRPRPNIYPRP | Escherichia coli TOP10 | -0.42 |
| RRIRCRPPRLPRPRPRPISVPRP | Escherichia coli TOP10 | 0.0666 |
| RRIRLRPPRLPRPRPRPWRHPRP | Escherichia coli TOP10 | -0.0415 |

List reported shrunken log2 fold change for each of these sequences:
1. RRIRARPPRLPRPRPRPWEYPRP
2. RRIRVRPPRLPRPRPRPWQLPRP
3. RRIRWRPPRLPRPRPRPMLWPRP
4. RRIRFRPPRLPRPRPRPNWSPRP
5. RRIRARPPRLPRPRPRPDEYPRP
6. RRIRVRPPRLPRPRPRPTTFPRP
7. RRIRARPPRLPRPRPRPCIPPRP
8. RRIRSRPPRLPRPRPRPDVWPRP

Output line:
1: -0.00494; 2: -0.421; 3: 0.0929; 4: -0.0531; 5: -0.0116; 6: -0.118; 7: 2.51; 8: 0.49

Batch request: shrunken log2 fold change per item, same order as input.
1. RRIRRRPPRLPRPRPRPYWVPRP
2. RRIRWRPPRLPRPRPRPYPQPRP

Output line:
[0.0443, -0.361]

###

System: Escherichia coli TOP10
Assay: shrunken log2 fold change of peptide-encoding DNA abundance (4.5 h post-induction vs induction); higher = less antimicrobial activity (less host growth inhibition)
Details: time post-induction: 4.5 h; library: site-saturation at positions 5, 18, 19, 20
parameter: shrunken log2 fold change
Numbers only.

| sequence code | shrunken log2 fold change |
| --- | --- |
| RRIRWRPPRLPRPRPRPDQNPRP | -0.0342 |
| RRIRDRPPRLPRPRPRPAIGPRP | 0.325 |
| RRIRTRPPRLPRPRPRPTEMPRP | 0.3 |
| RRIRFRPPRLPRPRPRPRVAPRP | 0.439 |
| RRIRARPPRLPRPRPRPIKGPRP | 0.3 |
| RRIRTRPPRLPRPRPRPGSVPRP | -0.179 |
| RRIRNRPPRLPRPRPRPALFPRP | 0.177 |
| RRIRTRPPRLPRPRPRPPGGPRP | 0.637 |

List reported shrunken log2 fold change for each of these sequences:
1. RRIRHRPPRLPRPRPRPMNKPRP
2. RRIRVRPPRLPRPRPRPRQMPRP
3. RRIRERPPRLPRPRPRPGHQPRP
4. RRIRRRPPRLPRPRPRPTGHPRP
5. RRIRYRPPRLPRPRPRPVQGPRP
6. RRIRPRPPRLPRPRPRPFNHPRP
7. RRIRERPPRLPRPRPRPCRAPRP
8. RRIRVRPPRLPRPRPRPYCCPRP

Output line:
1. -0.329
2. 0.117
3. -0.236
4. 0.236
5. -0.0822
6. -0.304
7. -0.0474
8. -0.252

###

System: Escherichia coli TOP10
Assay: shrunken log2 fold change of peptide-encoding DNA abundance (4.5 h post-induction vs induction); higher = less antimicrobial activity (less host growth inhibition)
Conditions: time post-induction: 4.5 h; library: site-saturation at positions 5, 18, 19, 20
parameter: shrunken log2 fold change
Answers are plain numbers.

Below, each entry is followed by its recorded shrunken log2 fold change result.
| sequence code | parameter | measured number |
| --- | --- | --- |
| RRIRQRPPRLPRPRPRPVPKPRP | shrunken log2 fold change | -0.00476 |
| RRIRHRPPRLPRPRPRPVETPRP | shrunken log2 fold change | 0.0401 |
| RRIRRRPPRLPRPRPRPNMAPRP | shrunken log2 fold change | 0.0119 |

Look up shrunken log2 fold change for the entries below, preserving their order.
1. RRIRMRPPRLPRPRPRPLRPPRP
2. RRIRERPPRLPRPRPRPPCQPRP

Output line:
1. 1.76
2. 0.0382

Please look at the items below and tell me shrunken log2 fold change for each one, in order.
1. RRIRGRPPRLPRPRPRPMGQPRP
2. RRIRWRPPRLPRPRPRPSCLPRP
3. RRIRGRPPRLPRPRPRPIDSPRP
4. RRIRNRPPRLPRPRPRPHNDPRP
5. RRIRLRPPRLPRPRPRPNWWPRP
6. RRIRRRPPRLPRPRPRPFYLPRP
7. RRIRVRPPRLPRPRPRPHIIPRP
8. RRIRTRPPRLPRPRPRPFSQPRP

Output line:
1. 0.651
2. -0.0337
3. 0.00395
4. -0.395
5. 0.117
6. -0.226
7. -0.204
8. -0.0652

Parameters: items (list). Returns: shrunken log2 fold change for each item.
1. RRIRPRPPRLPRPRPRPFNFPRP
2. RRIRWRPPRLPRPRPRPMKFPRP
3. RRIRERPPRLPRPRPRPGANPRP

Output line:
[-0.155, -0.278, 0.0574]

Batch lookup, shrunken log2 fold change per entry.
1. RRIRKRPPRLPRPRPRPGYFPRP
2. RRIRCRPPRLPRPRPRPPLMPRP
3. RRIRYRPPRLPRPRPRPNADPRP
4. RRIRDRPPRLPRPRPRPLLFPRP

Output line:
1: -0.0741; 2: 0.121; 3: -0.0823; 4: 0.445

###

Tested on: Escherichia coli TOP10
Experiment: shrunken log2 fold change of peptide-encoding DNA abundance (4.5 h post-induction vs induction); higher = less antimicrobial activity (less host growth inhibition)
Settings: time post-induction: 4.5 h; library: site-saturation at positions 5, 18, 19, 20
For each record, write down the corresponding shrunken log2 fold change.
Answers are plain numbers.

These recorded examples may help you get a feel for the data.
| sequence code | shrunken log2 fold change |
| --- | --- |
| RRIRSRPPRLPRPRPRPKRMPRP | 0.00691 |
| RRIRHRPPRLPRPRPRPCKSPRP | 0.0139 |
| RRIRWRPPRLPRPRPRPRTHPRP | 0.0534 |
| RRIRNRPPRLPRPRPRPPPMPRP | 0.678 |
| RRIRPRPPRLPRPRPRPAKWPRP | 0.0878 |

Look up shrunken log2 fold change for the entries below, preserving their order.
1. RRIRDRPPRLPRPRPRPVIDPRP
2. RRIRCRPPRLPRPRPRPLGNPRP
3. RRIRHRPPRLPRPRPRPYYPPRP
4. RRIRDRPPRLPRPRPRPILWPRP

Output line:
0.35
-0.229
-0.228
0.00705

###

System: Escherichia coli TOP10;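 also: peptides expressed intracellularly from a pBAD plasmid library in pooled LB shake-flask culture, induced with 0.3% L-arabinose, DNA abundance read by NGS, three biological replicates, DESeq2 with apeglm shrinkage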
Assay: shrunken log2 fold change of peptide-encoding DNA abundance (4.5 h post-induction vs induction); higher = less antimicrobial activity (less host growth inhibition)
Details: time post-induction: 4.5 h; library: site-saturation at positions 5, 18, 19, 20
For each of the sequences below, state its shrunken log2 fold change.
Answers are plain numbers.

Recorded results for 8 sequences are shown here.
| sequence code | parameter | measured number |
| --- | --- | --- |
| RRIRMRPPRLPRPRPRPFMEPRP | shrunken log2 fold change | -0.096 |
| RRIRERPPRLPRPRPRPQWMPRP | shrunken log2 fold change | 0.0273 |
| RRIRWRPPRLPRPRPRPRVQPRP | shrunken log2 fold change | 0.927 |
| RRIRCRPPRLPRPRPRPLKTPRP | shrunken log2 fold change | -0.0197 |
| RRIRWRPPRLPRPRPRPYQRPRP | shrunken log2 fold change | -0.85 |
| RRIRMRPPRLPRPRPRPQWTPRP | shrunken log2 fold change | 0.0242 |
| RRIRERPPRLPRPRPRPKDSPRP | shrunken log2 fold change | -0.212 |
| RRIRIRPPRLPRPRPRPVYAPRP | shrunken log2 fold change | -0.517 |

Please state, for each entry, its recorded shrunken log2 fold change.
1. RRIRDRPPRLPRPRPRPCMSPRP
2. RRIRPRPPRLPRPRPRPRLAPRP
3. RRIRCRPPRLPRPRPRPYVLPRP
4. RRIRIRPPRLPRPRPRPQILPRP
5. RRIRTRPPRLPRPRPRPYIAPRP
6. RRIRERPPRLPRPRPRPIDTPRP

Output line:
1. -0.256
2. 0.507
3. -0.903
4. 0.0356
5. -0.476
6. -0.113
